Molecular target: ferredoxin PA1551 (Pseudomonas aeruginosa)
Sequence (Q9I3G6 1-471): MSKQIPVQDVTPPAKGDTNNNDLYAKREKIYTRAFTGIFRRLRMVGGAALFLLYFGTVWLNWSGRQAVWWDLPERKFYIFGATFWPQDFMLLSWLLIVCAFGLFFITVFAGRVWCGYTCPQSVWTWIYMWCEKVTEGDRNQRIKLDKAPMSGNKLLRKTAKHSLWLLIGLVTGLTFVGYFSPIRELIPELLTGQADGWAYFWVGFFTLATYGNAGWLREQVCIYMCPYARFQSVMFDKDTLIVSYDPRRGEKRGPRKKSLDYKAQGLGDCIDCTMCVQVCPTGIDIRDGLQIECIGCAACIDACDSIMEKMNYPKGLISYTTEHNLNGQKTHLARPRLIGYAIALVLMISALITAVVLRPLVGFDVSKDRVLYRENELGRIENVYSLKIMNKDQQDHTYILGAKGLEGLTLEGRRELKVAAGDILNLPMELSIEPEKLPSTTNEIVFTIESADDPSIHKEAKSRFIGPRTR
Assay: microscale thermophoresis
quantity name: pKd
Note on units: pKd is unitless, being -log10 of a concentration expressed in mol/L.

Form field: reported pKd of CCCCCCC(=O)NCc1c(O)c(=O)cc(C)n1C [10d] 7.24
